List of ΔTm tested on Serine/threonine-protein kinase pim-3 (Homo sapiens) (UniProt Q86V86).

[
  {
    "COMPOUND": "Brc1c(Br)c(Br)c2[nH]nnc2c1Br",
    "TARGET OR SYSTEM": "Serine/threonine-protein kinase pim-3 (Homo sapiens) (UniProt Q86V86)",
    "ΔTm [°C]": 4.9
  },
  {
    "COMPOUND": "O=C(O)c1cc(N(Cc2ccccc2O)Cc2cc(O)ccc2O)ccc1O",
    "TARGET OR SYSTEM": "Serine/threonine-protein kinase pim-3 (Homo sapiens) (UniProt Q86V86)",
    "ΔTm [°C]": 0.4
  },
  {
    "COMPOUND": "CC(C)c1cc(/C=C(\\C#N)C(=O)NCCCc2ccccc2)cc(C(C)C)c1O",
    "TARGET OR SYSTEM": "Serine/threonine-protein kinase pim-3 (Homo sapiens) (UniProt Q86V86)",
    "ΔTm [°C]": 0.3
  },
  {
    "COMPOUND": "O=C1Nc2ccc(S(=O)(=O)O)cc2/C1=C1/Nc2ccccc2/C1=N\\O",
    "TARGET OR SYSTEM": "Serine/threonine-protein kinase pim-3 (Homo sapiens) (UniProt Q86V86)",
    "ΔTm [°C]": 5.1
  },
  {
    "COMPOUND": "Oc1ccc(-c2nc(-c3ccc(F)cc3)c(-c3ccncc3)[nH]2)cc1",
    "TARGET OR SYSTEM": "Serine/threonine-protein kinase pim-3 (Homo sapiens) (UniProt Q86V86)",
    "ΔTm [°C]": 1.3
  },
  {
    "COMPOUND": "CN(C)CCCn1cc(C2=C(c3c[nH]c4ccccc34)C(=O)NC2=O)c2ccccc21",
    "TARGET OR SYSTEM": "Serine/threonine-protein kinase pim-3 (Homo sapiens) (UniProt Q86V86)",
    "ΔTm [°C]": 9.1
  },
  {
    "COMPOUND": "COc1ccc(Cl)cc1NC(=O)Nc1cc(C)nc2ccccc12",
    "TARGET OR SYSTEM": "Serine/threonine-protein kinase pim-3 (Homo sapiens) (UniProt Q86V86)",
    "ΔTm [°C]": 0.8
  },
  {
    "COMPOUND": "CC(C)(C)n1nc(-c2ccc(Cl)cc2)c2c(N)ncnc21",
    "TARGET OR SYSTEM": "Serine/threonine-protein kinase pim-3 (Homo sapiens) (UniProt Q86V86)",
    "ΔTm [°C]": 0.7
  },
  {
    "COMPOUND": "Oc1cccc(-c2nc(N3CCOCC3)c3oc4ncccc4c3n2)c1",
    "TARGET OR SYSTEM": "Serine/threonine-protein kinase pim-3 (Homo sapiens) (UniProt Q86V86)",
    "ΔTm [°C]": 0.6
  },
  {
    "COMPOUND": "CC(C)(C)n1nc(-c2cccc3ccccc23)c2c(N)ncnc21",
    "TARGET OR SYSTEM": "Serine/threonine-protein kinase pim-3 (Homo sapiens) (UniProt Q86V86)",
    "ΔTm [°C]": 0.7
  },
  {
    "COMPOUND": "COc1cc2ncnc(Nc3ccc(F)c(Cl)c3)c2cc1OCCCN1CCOCC1",
    "TARGET OR SYSTEM": "Serine/threonine-protein kinase pim-3 (Homo sapiens) (UniProt Q86V86)",
    "ΔTm [°C]": -0.2
  },
  {
    "COMPOUND": "O=c1c2ccccc2[nH]c(=S)n1CCN1CCC(=C(c2ccc(F)cc2)c2ccc(F)cc2)CC1",
    "TARGET OR SYSTEM": "Serine/threonine-protein kinase pim-3 (Homo sapiens) (UniProt Q86V86)",
    "ΔTm [°C]": 0.9
  },
  {
    "COMPOUND": "C[S+]([O-])c1ccc(-c2nc(-c3ccc(F)cc3)c(-c3ccncc3)[nH]2)cc1 (configuration not stated)",
    "TARGET OR SYSTEM": "Serine/threonine-protein kinase pim-3 (Homo sapiens) (UniProt Q86V86)",
    "ΔTm [°C]": 0
  },
  {
    "COMPOUND": "O=C1C(Cl)=C(N2C(=O)CCC2=O)C(=O)c2ccccc21",
    "TARGET OR SYSTEM": "Serine/threonine-protein kinase pim-3 (Homo sapiens) (UniProt Q86V86)",
    "ΔTm [°C]": -1.7
  },
  {
    "COMPOUND": "O=C1NC(=O)c2c1c1c3ccccc3n3c1c1c2c2ccccc2n1C1CCC3O1",
    "TARGET OR SYSTEM": "Serine/threonine-protein kinase pim-3 (Homo sapiens) (UniProt Q86V86)",
    "ΔTm [°C]": 7.3
  },
  {
    "COMPOUND": "COc1cc2c(cc1OC)-c1n[nH]c(Nc3cccc(F)c3)c1C2",
    "TARGET OR SYSTEM": "Serine/threonine-protein kinase pim-3 (Homo sapiens) (UniProt Q86V86)",
    "ΔTm [°C]": 2.6
  },
  {
    "COMPOUND": "CC(C)(C)c1cc(C=C2C(=O)C=CC2=O)cc(C(C)(C)C)c1O",
    "TARGET OR SYSTEM": "Serine/threonine-protein kinase pim-3 (Homo sapiens) (UniProt Q86V86)",
    "ΔTm [°C]": 0.4
  },
  {
    "COMPOUND": "O=C(Nc1cccc(Nc2cc(Nc3cccc(C(F)(F)F)c3)ncn2)c1)C1CC1",
    "TARGET OR SYSTEM": "Serine/threonine-protein kinase pim-3 (Homo sapiens) (UniProt Q86V86)",
    "ΔTm [°C]": 0.1
  },
  {
    "COMPOUND": "Ic1cccc(CSc2nnc(-c3ccncc3)o2)c1",
    "TARGET OR SYSTEM": "Serine/threonine-protein kinase pim-3 (Homo sapiens) (UniProt Q86V86)",
    "ΔTm [°C]": 0.2
  },
  {
    "COMPOUND": "CN1CCC(Nc2ncc3ncnc(Nc4ccc(F)c(Cl)c4)c3n2)CC1",
    "TARGET OR SYSTEM": "Serine/threonine-protein kinase pim-3 (Homo sapiens) (UniProt Q86V86)",
    "ΔTm [°C]": 0.5
  },
  {
    "COMPOUND": "Nc1ncnc2c1c(I)cn2[C@@H]1O[C@H](CO)[C@@H](O)[C@H]1O",
    "TARGET OR SYSTEM": "Serine/threonine-protein kinase pim-3 (Homo sapiens) (UniProt Q86V86)",
    "ΔTm [°C]": 1.5
  },
  {
    "COMPOUND": "Cl.Cn1cc(C2=C(c3ccc4cc5n(c4c3)CCC(CN)C5)C(=O)NC2=O)c2ccccc21 (configuration not stated)",
    "TARGET OR SYSTEM": "Serine/threonine-protein kinase pim-3 (Homo sapiens) (UniProt Q86V86)",
    "ΔTm [°C]": 4.7
  },
  {
    "COMPOUND": "O=C1NC(=O)C(c2cn(CCCn3ccnc3)c3ccccc23)=C1Nc1ccccc1",
    "TARGET OR SYSTEM": "Serine/threonine-protein kinase pim-3 (Homo sapiens) (UniProt Q86V86)",
    "ΔTm [°C]": -0.3
  },
  {
    "COMPOUND": "Nc1n[nH]c2nc3ccccc3nc12",
    "TARGET OR SYSTEM": "Serine/threonine-protein kinase pim-3 (Homo sapiens) (UniProt Q86V86)",
    "ΔTm [°C]": 1.3
  },
  {
    "COMPOUND": "C[C@@H](N)[C@H]1CC[C@H](C(=O)Nc2ccncc2)CC1",
    "TARGET OR SYSTEM": "Serine/threonine-protein kinase pim-3 (Homo sapiens) (UniProt Q86V86)",
    "ΔTm [°C]": 1.3
  },
  {
    "COMPOUND": "Cc1nc(Nc2ncc(C(=O)Nc3c(C)cccc3Cl)s2)cc(N2CCN(CCO)CC2)n1",
    "TARGET OR SYSTEM": "Serine/threonine-protein kinase pim-3 (Homo sapiens) (UniProt Q86V86)",
    "ΔTm [°C]": -0.2
  },
  {
    "COMPOUND": "NCCNS(=O)(=O)c1cccc2c(Cl)cccc12",
    "TARGET OR SYSTEM": "Serine/threonine-protein kinase pim-3 (Homo sapiens) (UniProt Q86V86)",
    "ΔTm [°C]": 3.2
  },
  {
    "COMPOUND": "Cc1c2ccncc2c(C)c2c1[nH]c1ccccc12",
    "TARGET OR SYSTEM": "Serine/threonine-protein kinase pim-3 (Homo sapiens) (UniProt Q86V86)",
    "ΔTm [°C]": 1.3
  },
  {
    "COMPOUND": "CCCNC(=O)Nc1ccc(Oc2ncnc3cc(OC)c(OC)cc23)cc1Cl",
    "TARGET OR SYSTEM": "Serine/threonine-protein kinase pim-3 (Homo sapiens) (UniProt Q86V86)",
    "ΔTm [°C]": 4.9
  },
  {
    "COMPOUND": "Cc1ccc(NC2=CC(=O)c3sc(C)nc3C2=O)cc1",
    "TARGET OR SYSTEM": "Serine/threonine-protein kinase pim-3 (Homo sapiens) (UniProt Q86V86)",
    "ΔTm [°C]": -0.4
  },
  {
    "COMPOUND": "CC(C)(C)c1nc2c3ccc(F)cc3c3c(=O)[nH]ccc3c2[nH]1",
    "TARGET OR SYSTEM": "Serine/threonine-protein kinase pim-3 (Homo sapiens) (UniProt Q86V86)",
    "ΔTm [°C]": 7.2
  },
  {
    "COMPOUND": "CCCCc1c(-c2ccc(O)cc2)[nH]c2nccnc12",
    "TARGET OR SYSTEM": "Serine/threonine-protein kinase pim-3 (Homo sapiens) (UniProt Q86V86)",
    "ΔTm [°C]": 7.7
  },
  {
    "COMPOUND": "O=c1ccc2ccc(O)c(O)c2o1",
    "TARGET OR SYSTEM": "Serine/threonine-protein kinase pim-3 (Homo sapiens) (UniProt Q86V86)",
    "ΔTm [°C]": 0.8
  },
  {
    "COMPOUND": "Cc1ccc(NC(=O)c2cccc(N(C)C)c2)cc1NC(=O)c1ccc(O)cc1",
    "TARGET OR SYSTEM": "Serine/threonine-protein kinase pim-3 (Homo sapiens) (UniProt Q86V86)",
    "ΔTm [°C]": 0.6
  },
  {
    "COMPOUND": "CC(C)n1cnc2/c(=N/c3cccc(Cl)c3)nc(NCCO)[nH]c21",
    "TARGET OR SYSTEM": "Serine/threonine-protein kinase pim-3 (Homo sapiens) (UniProt Q86V86)",
    "ΔTm [°C]": 2.3
  },
  {
    "COMPOUND": "COc1ccc(CNc2nc(N(CCO)CCO)nc3c2ncn3C(C)C)cc1",
    "TARGET OR SYSTEM": "Serine/threonine-protein kinase pim-3 (Homo sapiens) (UniProt Q86V86)",
    "ΔTm [°C]": 0.2
  },
  {
    "COMPOUND": "NC(=O)c1ccc2[nH]c(-c3ccc(Oc4ccc(Cl)cc4)cc3)nc2c1",
    "TARGET OR SYSTEM": "Serine/threonine-protein kinase pim-3 (Homo sapiens) (UniProt Q86V86)",
    "ΔTm [°C]": -0.8
  },
  {
    "COMPOUND": "Nc1nccc(-c2c(-c3ccc(F)cc3)ncn2C2CCNCC2)n1",
    "TARGET OR SYSTEM": "Serine/threonine-protein kinase pim-3 (Homo sapiens) (UniProt Q86V86)",
    "ΔTm [°C]": 0
  },
  {
    "COMPOUND": "Cc1nc2sccn2c(=O)c1CCN1CCC(=C(c2ccccc2)c2ccc(F)cc2)CC1",
    "TARGET OR SYSTEM": "Serine/threonine-protein kinase pim-3 (Homo sapiens) (UniProt Q86V86)",
    "ΔTm [°C]": 6.1
  },
  {
    "COMPOUND": "Cc1cc(C=C2C(=O)C=CC2=O)cc(C)c1O",
    "TARGET OR SYSTEM": "Serine/threonine-protein kinase pim-3 (Homo sapiens) (UniProt Q86V86)",
    "ΔTm [°C]": 3.6
  },
  {
    "COMPOUND": "N#C/C(=C\\c1ccc(O)c(O)c1)C(=O)Nc1ccccc1",
    "TARGET OR SYSTEM": "Serine/threonine-protein kinase pim-3 (Homo sapiens) (UniProt Q86V86)",
    "ΔTm [°C]": 2.8
  },
  {
    "COMPOUND": "COc1cc(O)c2c(c1)oc(=O)c1c3cc(O)c(O)cc3oc21",
    "TARGET OR SYSTEM": "Serine/threonine-protein kinase pim-3 (Homo sapiens) (UniProt Q86V86)",
    "ΔTm [°C]": 5.9
  }
]
